Test: Half life in rat at 25 mg/kg, po
Assay type: ADME, organism-based
Set-up: dose 25 mg/kg, route oral
Conditions: in vivo
Listed molecules paired with reported half-life
reportedMetric: half-life (min)

1) COc1ccc([C@H]2C[C@@H]2NC(=O)CC(C)(C)NCC(=O)N2C[C@@H](F)C[C@H]2C#N)cc1	318
2) CC(C)(CC(=O)N[C@H]1C[C@@H]1c1cccc(Cl)c1)NCC(=O)N1CC(F)(F)C[C@H]1C#N	192

---

Target: hERG (KCNH2) (Homo sapiens, UniProt Q12809)
Sequence (Q12809 whole entry): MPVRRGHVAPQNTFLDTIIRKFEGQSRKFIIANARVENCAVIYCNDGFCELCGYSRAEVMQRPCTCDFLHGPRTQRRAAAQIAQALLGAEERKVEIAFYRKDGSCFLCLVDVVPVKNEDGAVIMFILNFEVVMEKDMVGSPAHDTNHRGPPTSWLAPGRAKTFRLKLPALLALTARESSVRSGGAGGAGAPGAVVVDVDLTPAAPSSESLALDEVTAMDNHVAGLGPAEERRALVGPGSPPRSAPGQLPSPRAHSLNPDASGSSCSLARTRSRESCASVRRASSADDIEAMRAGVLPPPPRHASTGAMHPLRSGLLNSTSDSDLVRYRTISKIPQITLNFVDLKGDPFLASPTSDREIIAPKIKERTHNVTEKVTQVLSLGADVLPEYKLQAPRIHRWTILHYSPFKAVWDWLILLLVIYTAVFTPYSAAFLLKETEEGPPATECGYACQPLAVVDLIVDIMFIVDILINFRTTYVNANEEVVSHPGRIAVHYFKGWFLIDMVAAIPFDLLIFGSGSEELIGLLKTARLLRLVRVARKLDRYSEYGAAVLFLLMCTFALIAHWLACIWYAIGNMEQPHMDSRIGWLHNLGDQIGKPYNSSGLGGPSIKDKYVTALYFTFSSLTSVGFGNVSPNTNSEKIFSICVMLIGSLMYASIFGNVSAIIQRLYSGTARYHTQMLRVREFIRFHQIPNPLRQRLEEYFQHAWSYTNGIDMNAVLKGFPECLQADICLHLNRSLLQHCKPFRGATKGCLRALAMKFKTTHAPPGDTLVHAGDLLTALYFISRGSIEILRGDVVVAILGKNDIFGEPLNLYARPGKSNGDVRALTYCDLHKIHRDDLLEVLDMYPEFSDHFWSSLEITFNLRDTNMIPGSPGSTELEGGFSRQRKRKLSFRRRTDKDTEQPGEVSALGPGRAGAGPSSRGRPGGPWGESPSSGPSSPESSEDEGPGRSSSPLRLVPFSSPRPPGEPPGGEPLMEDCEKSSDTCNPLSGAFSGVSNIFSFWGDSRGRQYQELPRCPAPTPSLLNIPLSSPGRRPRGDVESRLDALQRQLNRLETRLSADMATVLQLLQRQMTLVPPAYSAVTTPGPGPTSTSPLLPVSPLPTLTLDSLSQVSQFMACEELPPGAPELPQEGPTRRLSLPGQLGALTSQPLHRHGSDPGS
Assay: Inhibition of human ERG at 10 uM
// values below are reported inhibition at 10 µM
reportedMetric: inhibition at 10 µM (%)

1) CC(C)(CC(=O)N[C@H]1C[C@@H]1c1cccc(Cl)c1)NCC(=O)N1CC(F)(F)C[C@H]1C#N	15
2) CC(C)(CC(=O)N[C@H]1C[C@@H]1c1cccc(Cl)c1)NCC(=O)N1C[C@@H](F)C[C@H]1C#N	11

---

Experiment: Half life in rat at 10 mg/kg, po
Format: ADME, organism-based
Design: dose 10 mg/kg, route oral
Details: in vivo
Consider the following molecules and their measured half-life readings.
reportedMetric: half-life (h)

1. CC(C)(CC(=O)N[C@H]1C[C@@H]1c1cccc(F)c1)NCC(=O)N1C[C@@H](F)C[C@H]1C#N	1.2
2. CC(C)(CC(=O)N[C@H]1C[C@@H]1c1cccc(Cl)c1)NCC(=O)N1C[C@@H](F)C[C@H]1C#N	4.8
3. COc1cccc([C@H]2C[C@@H]2NC(=O)CC(C)(C)NCC(=O)N2C[C@@H](F)C[C@H]2C#N)c1	6.8

---

Read-out record for Dipeptidyl peptidase 8 (Homo sapiens): IC50
reportedMetric: IC50

1. CCOc1cccc([C@H]2C[C@@H]2NC(=O)CC(C)(C)NCC(=O)N2C[C@@H](F)C[C@H]2C#N)c1	> 20 µM
2. CC(C)(CC(=O)N[C@H]1C[C@@H]1c1ccccc1)NCC(=O)N1CCC[C@H]1C#N	> 20 µM
3. CC(C)(CC(=O)N[C@H]1C[C@@H]1c1ccc(Cl)c(Cl)c1)NCC(=O)N1CCC[C@H]1C#N	> 20 µM
4. CC(C)(CC(=O)N[C@H]1C[C@@H]1c1cc(F)cc(F)c1)NCC(=O)N1CCC[C@H]1C#N	> 20 µM
5. CC(C)(CC(=O)N[C@H]1C[C@@H]1c1ccc(Cl)cc1)NCC(=O)N1CCC[C@H]1C#N	> 20 µM
6. CC(C)(CC(=O)N[C@H]1C[C@@H]1c1ccc(C(F)(F)F)cc1)NCC(=O)N1CCC[C@H]1C#N	> 20 µM
7. Cc1ncsc1[C@H]1C[C@@H]1NC(=O)CC(C)(C)NCC(=O)N1C[C@@H](F)C[C@H]1C#N	> 20 µM
8. CC(C)(CC(=O)N[C@H]1C[C@@H]1c1cccc(Cl)c1)NCC(=O)N1CCC[C@H]1C#N (stereo in doubt; 18k)	> 20 µM

---

Target sequence: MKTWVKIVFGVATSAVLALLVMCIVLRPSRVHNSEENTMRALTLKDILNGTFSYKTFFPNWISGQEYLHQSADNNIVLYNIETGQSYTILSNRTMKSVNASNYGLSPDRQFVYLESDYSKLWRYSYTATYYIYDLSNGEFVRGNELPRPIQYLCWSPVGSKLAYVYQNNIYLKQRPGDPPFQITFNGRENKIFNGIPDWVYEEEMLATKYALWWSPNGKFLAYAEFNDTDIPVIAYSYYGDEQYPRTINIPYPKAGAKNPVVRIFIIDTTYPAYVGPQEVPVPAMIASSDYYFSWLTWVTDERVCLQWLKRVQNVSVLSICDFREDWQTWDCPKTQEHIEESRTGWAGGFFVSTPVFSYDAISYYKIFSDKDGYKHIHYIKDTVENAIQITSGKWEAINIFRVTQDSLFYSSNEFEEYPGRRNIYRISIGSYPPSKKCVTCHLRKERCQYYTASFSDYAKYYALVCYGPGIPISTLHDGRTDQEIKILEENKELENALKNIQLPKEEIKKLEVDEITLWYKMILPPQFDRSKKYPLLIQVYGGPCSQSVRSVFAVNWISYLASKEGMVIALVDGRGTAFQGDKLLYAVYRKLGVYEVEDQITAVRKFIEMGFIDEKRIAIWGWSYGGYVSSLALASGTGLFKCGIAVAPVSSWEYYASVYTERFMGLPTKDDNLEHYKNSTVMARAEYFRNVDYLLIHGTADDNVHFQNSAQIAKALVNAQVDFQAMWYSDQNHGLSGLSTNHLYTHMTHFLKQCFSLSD
reportedMetric: IC50

1. CC(C)(CC(=O)N[C@H]1C[C@@H]1c1cccc(OC(F)(F)F)c1)NCC(=O)N1CCC[C@H]1C#N	> 20 µM
2. CC(C)(CC(=O)N[C@H]1C[C@@H]1c1cccc(Cl)c1)NCC(=O)N1CCC[C@H]1C#N (stereo in doubt; 18k)	> 20 µM
3. CC(C)(CC(=O)N[C@H]1C[C@@H]1c1cccc(Cl)c1)NCC(=O)N1C[C@@H](F)C[C@H]1C#N	> 20 µM
